- Tested on: adipocytes
- procedure text: Triglyceride accumulation assay in adipocytes
- Assay type: cell-based, human
- applied conditions: Table 17; differentiating adipocytes; control = treatment with ISIS 342673
In the oligonucleotide strings, read from the 5' end, every base follows the letter of its sugar. An asterisk marks phosphorothioate; unmarked linkages are phosphodiester. Other units and linkages are bracketed, terminal groups are in braces. A string of capitals states the bases alone. e = 2'-O-(2-methoxyethyl) (MOE); [5mC] = 5-methylcytosine; d = 2'-deoxy (DNA)
Give measured TG (triglyceride accumulation) for each item. Keep answers brief.

Give the reported TG (triglyceride accumulation) for 328127 (antisense eA*eA*e[5mC]*eG*eA*eT*eA*eA*eA*eA*e[5mC]*eA*eT*eA*e[5mC]*eT*eT*eG*eT*e[5mC]*eA) [compound 328127] (system: adipocytes). 74.5 percentage of control

Form field - read-out: TG (triglyceride accumulation); system: adipocytes; submitted item: 328119 (antisense eA*eA*eT*eA*eA*e[5mC]*eA*e[5mC]*eA*e[5mC]*eA*eT*e[5mC]*e[5mC]*eA*e[5mC]*eT*eT*eT*eA*eA) [compound 328119] 90.2 percentage of control

What measured TG (triglyceride accumulation) is associated with 328123 (antisense eT*eT*eA*e[5mC]*eA*eG*eG*eT*eG*e[5mC]*eT*eG*e[5mC]*eA*eA*e[5mC]*eT*eG*eG*eA*eA) [compound 328123] on adipocytes? 120.8 percentage of control

Notebook: pull reported TG (triglyceride accumulation) for adipocytes, entry 328139 (eT*eA*e[5mC]*eT*eT*eT*eT*e[5mC]*eA*eT*eT*e[5mC]*e[5mC]*e[5mC]*e[5mC]*eT*e[5mC]*eA*e[5mC]*e[5mC]*eA; anti-miR) [compound 328139] 89.1 percentage of control

Lab note: need TG (triglyceride accumulation) with adipocytes for entry 105990 (antisense AGCAAAAGATCAATCCGTTA; sugars from the 5' end e5 d10 e5, backbone and methylation of C not given here) [compound 105990] , please look it up. 28.2 percentage of control

Quick check: TG (triglyceride accumulation) on adipocytes, item 328124 (antisense eA*eG*e[5mC]*eA*eG*eG*eT*eG*eA*eA*eG*eG*e[5mC]*eA*e[5mC]*e[5mC]*eT*eG*eG*e[5mC]*eT) [compound 328124] ? 99.1 percentage of control

Lab note: need TG (triglyceride accumulation) with adipocytes for entry 328133 (eT*eG*eA*eA*eG*eG*eT*eT*e[5mC]*eG*eG*eA*eG*eA*eT*eA*eG*eG*e[5mC]*eT*eA; anti-miR) [compound 328133] , please look it up. 61.2 percentage of control

API: value(readout= TG (triglyceride accumulation), system= adipocytes, query= 328116 (antisense e[5mC]*eA*eA*eA*eA*eT*eT*eG*e[5mC]*eA*eA*eG*e[5mC]*eA*eA*eA*eT*eT*eG*e[5mC]*eA) [compound 328116] ) 82.1 percentage of control

Field: TG (triglyceride accumulation) (adipocytes). Entry: 328125 (antisense eT*eA*eT*eG*eA*eA*eA*eT*eG*e[5mC]*e[5mC]*eA*eG*eA*eG*e[5mC]*eT*eG*e[5mC]*e[5mC]*eA) [compound 328125] 81.7 percentage of control

Identify the measured TG (triglyceride accumulation) of 328118 (antisense eT*eA*eT*eT*eA*eT*e[5mC]*eA*eG*e[5mC]*eA*eT*e[5mC]*eT*eG*e[5mC]*eT*eT*eG*e[5mC]*eA) [compound 328118] for adipocytes. 69.3 percentage of control

So what TG (triglyceride accumulation) did 328128 (antisense eA*eG*eT*eA*eA*e[5mC]*eT*eT*e[5mC]*eT*eT*eG*e[5mC]*eA*eG*eT*eT*eG*eG*eA) [compound 328128] get with adipocytes? 98.7 percentage of control

Kindly state the measured TG (triglyceride accumulation) obtained for 342673 (antisense eA*eG*eA*e[5mC]*eT*eA*eG*e[5mC]*eG*eG*eT*eA*eT*e[5mC]*eT*eT*eT*eA*eT*e[5mC]*e[5mC]*e[5mC]) [compound 342673] with adipocytes. 100.0 percentage of control

Request - read-out TG (triglyceride accumulation) | tested on adipocytes | substance 328134 (eA*eA*eT*eT*eG*eG*eA*e[5mC]*eA*eA*eA*eG*eT*eG*e[5mC]*e[5mC]*eT*eT*eT*e[5mC]*eA; anti-miR) [compound 328134] 85.7 percentage of control

What reported TG (triglyceride accumulation) corresponds to 328130 (antisense eA*e[5mC]*e[5mC]*eT*e[5mC]*eA*eG*eG*eT*eG*eG*eT*eT*eG*eA*eA*eG*eG*eA*eG*eA) [compound 328130] on adipocytes? 122.4 percentage of control

So what TG (triglyceride accumulation) did 328122 (antisense e[5mC]*eA*eA*eA*eA*e[5mC]*eA*eT*eA*eA*eA*eA*eA*eT*e[5mC]*e[5mC]*eT*eT*eG*e[5mC]*eA) [compound 328122] get with adipocytes? 78.9 percentage of control

Recall the recorded TG (triglyceride accumulation) for 328129 (antisense eA*eG*e[5mC]*e[5mC]*eT*e[5mC]*e[5mC]*eT*eT*e[5mC]*eT*eT*e[5mC]*eT*e[5mC]*eG*eT*eA*e[5mC]*eT*eA) [compound 328129] with adipocytes and state it. 53.8 percentage of control

Checklist item: TG (triglyceride accumulation) tested on adipocytes, entry 328137 (eG*eT*eA*eA*eG*e[5mC]*eG*e[5mC]*eA*eG*e[5mC]*eT*e[5mC]*e[5mC]*eA*e[5mC]*eA*eG*eG*e[5mC]*eT; anti-miR) [compound 328137] , value? 83.2 percentage of control
